Overview of recorded TGI for various compounds
test system: NCI/ADR-RES ovarian; experiment: NCI tumour cell line growth inhibition, 48 h

{"columns": ["COMPOUND", "INEQUALITY SIGN", "TGI / µM"],
 "data": [
  ["COc1ccc2c(-c3ccnc(Nc4cccc(OC(F)(F)F)c4)n3)cnn2n1", "=", 6.74],
  ["O=C1C(OCCOc2ccccc2)=C(OCCOc2ccccc2)C(=O)c2ccccc21", ">", 100],
  ["c1ccc(CC2COC(c3cccs3)=N2)cc1 (centres undefined)", ">", 100],
  ["COc1cc2c(cc1F)C(c1ccccc1Cl)=Nc1c(n[nH]c1C)N2", "=", 29.5]
]}
